target: human CD33 E224A (human, UniProt P20138 18-364); test: alanine scan, flow cytometry, HEK293-T;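 note: antibody binding to each alanine-substituted CD33 mutant expressed transiently in HEK293-T, read as fluorescence minus background, mean of duplicates, relative to wild-type CD33 set as 100%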
Sequence (P20138 18-364 E224A limits assumed): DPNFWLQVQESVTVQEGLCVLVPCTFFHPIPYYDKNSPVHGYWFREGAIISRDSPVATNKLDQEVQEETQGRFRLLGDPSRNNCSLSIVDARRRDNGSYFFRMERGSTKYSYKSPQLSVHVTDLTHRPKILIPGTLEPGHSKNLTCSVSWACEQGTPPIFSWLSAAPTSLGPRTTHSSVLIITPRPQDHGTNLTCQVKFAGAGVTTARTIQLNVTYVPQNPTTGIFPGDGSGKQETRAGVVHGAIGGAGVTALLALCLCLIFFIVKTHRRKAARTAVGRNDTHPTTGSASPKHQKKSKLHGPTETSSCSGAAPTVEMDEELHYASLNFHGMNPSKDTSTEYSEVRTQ
ASSAY READOUT: Mean % WT Binding (%)
Give the value, in units of %, as a plain number.

Inquiry: Fill in: Mean % WT Binding of Refmab #3 (antibody, V domains shown, In the alanine scan antibodies were used as IgG or Fab) VH: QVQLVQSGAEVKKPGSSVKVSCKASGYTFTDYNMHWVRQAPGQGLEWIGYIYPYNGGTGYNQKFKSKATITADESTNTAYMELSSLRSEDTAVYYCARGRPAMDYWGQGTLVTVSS VL: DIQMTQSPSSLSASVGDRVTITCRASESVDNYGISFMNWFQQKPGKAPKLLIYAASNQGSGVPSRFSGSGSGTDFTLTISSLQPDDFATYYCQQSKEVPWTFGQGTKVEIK is ___
Reply text: 83.2
